molecular target: Cbl-b (Homo sapiens (Human)); assay: Cbl-b LCK Ub TR-FRET assay (Cbl-b Lck HTRF); assay type: biochemical; details: ratio C-cbl Lck HTRF IC50 / Cbl-b Lck HTRF IC50
Sequence (Q13191 40-426): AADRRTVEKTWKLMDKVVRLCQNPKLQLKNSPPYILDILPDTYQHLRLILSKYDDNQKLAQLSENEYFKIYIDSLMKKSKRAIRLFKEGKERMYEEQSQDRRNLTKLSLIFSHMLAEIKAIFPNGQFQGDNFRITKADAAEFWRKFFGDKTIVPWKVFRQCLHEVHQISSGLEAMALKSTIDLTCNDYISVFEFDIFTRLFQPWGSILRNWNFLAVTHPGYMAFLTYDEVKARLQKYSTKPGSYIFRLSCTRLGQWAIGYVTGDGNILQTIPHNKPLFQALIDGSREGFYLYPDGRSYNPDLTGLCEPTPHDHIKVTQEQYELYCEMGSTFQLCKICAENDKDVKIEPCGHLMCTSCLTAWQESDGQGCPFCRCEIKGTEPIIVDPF
MEASUREMENT NAME: fold-selectivity (Cbl-b over C-cbl) (x)

[P] Cn1cnnc1[C@@H](c1cccc(N2Cc3c(cc(CNC4(C)CCC4)cc3C(F)(F)F)C2=O)c1)C1(F)COC1 (single isomer, unassigned) [Compound 380]
[Q] Cn1cnnc1[C@]1(c2cccc(N3Cc4c(cc(CNC5(C)CCC5)cc4C(F)(F)F)C3=O)c2)CCC(F)(F)C1 (single isomer, unassigned) [Compound 107]
[R] C[C@@H](CC#N)Nc1cc(C2(c3nncn3C)CC3(COC3)C2)cc(N2Cc3c(cc(CNC4(C)CCC4)cc3C(F)(F)F)C2=O)n1 [Compound 194]
Which order do the above compounds take when sorted by rising fold-selectivity (Cbl-b over C-cbl)? Smallest first. Field: ranking. Enter the labels in the order requested.
P, R, Q

Each recorded value in this set is attributed to patent US12187709B2.
